Reference for the values: ChEMBL document CHEMBL3813616

- Target System: UniProtKB P29317
- Sequence (P29317 whole entry, the tested form may be a part): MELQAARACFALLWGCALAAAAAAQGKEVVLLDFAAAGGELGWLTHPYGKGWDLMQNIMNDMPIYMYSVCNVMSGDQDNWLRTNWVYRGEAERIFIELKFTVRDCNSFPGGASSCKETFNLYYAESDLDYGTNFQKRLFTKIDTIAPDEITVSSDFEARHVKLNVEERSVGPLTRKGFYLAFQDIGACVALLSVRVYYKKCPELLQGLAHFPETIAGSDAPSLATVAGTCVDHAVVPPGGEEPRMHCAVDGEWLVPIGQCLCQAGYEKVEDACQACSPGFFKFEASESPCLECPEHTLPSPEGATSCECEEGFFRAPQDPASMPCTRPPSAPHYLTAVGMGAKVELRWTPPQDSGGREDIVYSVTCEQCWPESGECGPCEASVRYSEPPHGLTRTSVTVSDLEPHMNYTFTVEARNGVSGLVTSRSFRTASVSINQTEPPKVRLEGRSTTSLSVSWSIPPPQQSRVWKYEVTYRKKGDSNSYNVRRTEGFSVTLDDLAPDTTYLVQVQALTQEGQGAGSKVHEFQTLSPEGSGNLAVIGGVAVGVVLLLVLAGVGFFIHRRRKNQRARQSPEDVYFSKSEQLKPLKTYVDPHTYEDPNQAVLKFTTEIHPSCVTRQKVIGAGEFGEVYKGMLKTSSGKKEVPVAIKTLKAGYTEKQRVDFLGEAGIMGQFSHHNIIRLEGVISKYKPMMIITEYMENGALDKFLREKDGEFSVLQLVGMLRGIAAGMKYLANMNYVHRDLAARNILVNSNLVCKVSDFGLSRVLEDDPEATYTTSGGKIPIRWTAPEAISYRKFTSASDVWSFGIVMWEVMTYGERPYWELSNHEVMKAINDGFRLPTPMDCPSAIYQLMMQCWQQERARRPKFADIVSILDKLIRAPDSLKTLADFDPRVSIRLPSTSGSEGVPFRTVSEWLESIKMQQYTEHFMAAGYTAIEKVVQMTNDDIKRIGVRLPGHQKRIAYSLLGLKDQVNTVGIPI
- Procedure Text: Inhibition of human EPHA2 (591 to 976 residues) assessed as enzyme activity at 1 uM using 33P ATP by radioactive filter binding assay
- Set-up: scale not given: the % may be the effect or the level left
Could you please report measured Activity for the items listed next?
The response must be a number in % with no trailing unit.

Req: Missing value: Activity, UniProtKB P29317, entry CCCCc1cc(-c2c[nH]c3ncc(-c4cnn(C5CCNCC5)c4)cc23)nc(N)n1 . Fill in?
Resp: -53

Req: Try the compound Nc1nccc(-c2c[nH]c3ncccc23)n1
Resp: 25

Req: Try the compound CCc1cc(-c2c[nH]c3ncc(-c4cnn(C5CCNCC5)c4)cc23)nc(N)n1
Resp: -16

Req: Try the compound CCCCc1cc(-c2c[nH]c3ncccc23)nc(N)n1
Resp: 17

====

- Target System: Serine/threonine-protein kinase 3 (Homo sapiens)
- Sequence (whole entry): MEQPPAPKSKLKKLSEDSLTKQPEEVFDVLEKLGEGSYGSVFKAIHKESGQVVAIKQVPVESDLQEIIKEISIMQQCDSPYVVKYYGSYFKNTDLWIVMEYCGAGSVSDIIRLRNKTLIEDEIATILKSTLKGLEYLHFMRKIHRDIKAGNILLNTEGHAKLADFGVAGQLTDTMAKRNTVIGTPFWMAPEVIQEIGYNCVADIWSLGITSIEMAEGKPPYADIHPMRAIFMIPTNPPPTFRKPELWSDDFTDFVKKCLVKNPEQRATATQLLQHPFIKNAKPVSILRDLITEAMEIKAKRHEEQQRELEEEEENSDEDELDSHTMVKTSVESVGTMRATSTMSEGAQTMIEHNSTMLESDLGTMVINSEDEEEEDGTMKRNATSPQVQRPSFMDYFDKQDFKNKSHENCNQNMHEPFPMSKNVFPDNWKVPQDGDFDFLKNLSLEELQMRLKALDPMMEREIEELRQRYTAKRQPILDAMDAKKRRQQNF
- Procedure Text: Inhibition of human MST2 (2 to 491 residues) assessed as enzyme activity at 1 uM using 33P ATP by radioactive filter binding assay
- Set-up: scale not given: the % may be the effect or the level left
Could you please report measured Activity for the items listed next?
The response must be a number in % with no trailing unit.

Req: Query (compound): Nc1nccc(-c2c[nH]c3ncccc23)n1 ; field requested: Activity
Resp: -20

Req: Try the compound CCCCc1cc(-c2c[nH]c3ncccc23)nc(N)n1
Resp: -33

Req: Try the compound CCc1cc(-c2c[nH]c3ncc(-c4cnn(C5CCNCC5)c4)cc23)nc(N)n1
Resp: -63

Req: Try the compound CCCCc1cc(-c2c[nH]c3ncc(-c4cnn(C5CCNCC5)c4)cc23)nc(N)n1
Resp: -86

====

Could you please report measured Activity for the items listed next?
- Target System: MAP kinase-interacting serine/threonine-protein kinase 2 (Homo sapiens) (UniProt Q9HBH9)
- Sequence (Q9HBH9 whole entry, looked up, the tested form may be a part): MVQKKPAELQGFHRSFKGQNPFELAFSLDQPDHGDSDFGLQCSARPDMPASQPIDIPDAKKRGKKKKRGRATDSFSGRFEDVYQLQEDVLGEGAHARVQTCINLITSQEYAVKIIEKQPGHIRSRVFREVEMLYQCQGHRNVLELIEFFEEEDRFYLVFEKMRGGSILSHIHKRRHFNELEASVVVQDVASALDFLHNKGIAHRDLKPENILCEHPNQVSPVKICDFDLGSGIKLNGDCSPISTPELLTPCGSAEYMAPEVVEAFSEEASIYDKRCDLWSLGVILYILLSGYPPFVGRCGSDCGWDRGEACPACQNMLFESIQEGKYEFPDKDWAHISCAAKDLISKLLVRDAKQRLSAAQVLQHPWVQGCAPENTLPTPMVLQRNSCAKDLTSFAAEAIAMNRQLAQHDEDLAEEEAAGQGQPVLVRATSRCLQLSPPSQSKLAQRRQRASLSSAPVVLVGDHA
- Procedure Text: Inhibition of human MNK2alpha (2 to 465 residues) assessed as enzyme activity at 1 uM using 33P ATP by radioactive filter binding assay
- Design: scale not given: the % may be the effect or the level left
The response must be a number in % with no trailing unit.

Req: Query (compound): CCCCc1cc(-c2c[nH]c3ncc(-c4cnn(C5CCNCC5)c4)cc23)nc(N)n1 ; field requested: Activity
Resp: -42

Req: Try the compound Nc1nccc(-c2c[nH]c3ncccc23)n1 [MERIOLIN 1]
Resp: -35

Req: Try the compound CCCCc1cc(-c2c[nH]c3ncccc23)nc(N)n1
Resp: -15

Req: Try the compound CCc1cc(-c2c[nH]c3ncc(-c4cnn(C5CCNCC5)c4)cc23)nc(N)n1
Resp: -49

====

- Target System: Phosphatidylinositol 4,5-bisphosphate 3-kinase catalytic subunit alpha isoform (Homo sapiens)
- Sequence (P42336 whole entry, canonical isoform): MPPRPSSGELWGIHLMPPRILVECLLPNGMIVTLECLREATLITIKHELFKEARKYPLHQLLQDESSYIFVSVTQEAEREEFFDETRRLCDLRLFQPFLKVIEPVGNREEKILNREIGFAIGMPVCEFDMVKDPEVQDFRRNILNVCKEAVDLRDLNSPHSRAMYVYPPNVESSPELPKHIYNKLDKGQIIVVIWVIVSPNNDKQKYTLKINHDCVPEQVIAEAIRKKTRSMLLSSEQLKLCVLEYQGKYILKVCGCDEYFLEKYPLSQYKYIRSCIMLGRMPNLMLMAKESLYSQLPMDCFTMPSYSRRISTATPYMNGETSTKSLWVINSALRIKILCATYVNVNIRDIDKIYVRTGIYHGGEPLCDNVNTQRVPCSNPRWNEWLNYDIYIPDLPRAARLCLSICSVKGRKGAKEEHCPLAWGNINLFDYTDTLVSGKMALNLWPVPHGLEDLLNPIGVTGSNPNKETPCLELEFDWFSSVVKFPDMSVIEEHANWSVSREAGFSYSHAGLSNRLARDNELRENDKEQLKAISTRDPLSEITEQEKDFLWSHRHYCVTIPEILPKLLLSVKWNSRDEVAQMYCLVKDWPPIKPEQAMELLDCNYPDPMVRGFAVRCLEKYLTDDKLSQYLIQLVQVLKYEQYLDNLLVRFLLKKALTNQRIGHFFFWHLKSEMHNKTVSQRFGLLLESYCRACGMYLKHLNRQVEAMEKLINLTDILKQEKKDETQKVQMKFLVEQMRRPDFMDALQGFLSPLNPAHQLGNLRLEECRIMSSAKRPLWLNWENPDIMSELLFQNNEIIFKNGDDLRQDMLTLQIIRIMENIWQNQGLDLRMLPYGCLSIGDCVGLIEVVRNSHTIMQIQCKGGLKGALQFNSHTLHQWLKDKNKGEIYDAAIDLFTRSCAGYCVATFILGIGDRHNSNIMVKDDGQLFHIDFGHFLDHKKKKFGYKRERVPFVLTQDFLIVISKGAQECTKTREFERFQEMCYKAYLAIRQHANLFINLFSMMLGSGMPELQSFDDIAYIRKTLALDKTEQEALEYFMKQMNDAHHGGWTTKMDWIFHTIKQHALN
- Procedure Text: Inhibition of PI3K alpha (unknown origin)
Could you please report measured pIC50 for the items listed next?
On this scale, pIC50 is minus log10 of a concentration expressed in M (mol/L).

Req: Query (molecule): CCc1cc(-c2c[nH]c3ncc(-c4cnn(CC(C)C)c4)cc23)nc(N)n1 ; field requested: pIC50
Resp: 5.33

Req: Try the molecule CCCCc1cc(-c2c[nH]c3ncc(-c4cnn(C5CCNCC5)c4)cc23)nc(N)n1
Resp: 5.26

Req: Try the molecule CCc1cc(-c2c[nH]c3ncc(-c4cn[nH]c4)cc23)nc(N)n1
Resp: 5.22

Req: Try the molecule CCc1cc(-c2c[nH]c3ncc(-c4cnn(CCN(C)C)c4)cc23)nc(N)n1
Resp: 5.41

====

- Target System: RAC-alpha serine/threonine-protein kinase (Homo sapiens) (UniProt P31749)
- Sequence (P31749 whole entry, the tested form may be a part): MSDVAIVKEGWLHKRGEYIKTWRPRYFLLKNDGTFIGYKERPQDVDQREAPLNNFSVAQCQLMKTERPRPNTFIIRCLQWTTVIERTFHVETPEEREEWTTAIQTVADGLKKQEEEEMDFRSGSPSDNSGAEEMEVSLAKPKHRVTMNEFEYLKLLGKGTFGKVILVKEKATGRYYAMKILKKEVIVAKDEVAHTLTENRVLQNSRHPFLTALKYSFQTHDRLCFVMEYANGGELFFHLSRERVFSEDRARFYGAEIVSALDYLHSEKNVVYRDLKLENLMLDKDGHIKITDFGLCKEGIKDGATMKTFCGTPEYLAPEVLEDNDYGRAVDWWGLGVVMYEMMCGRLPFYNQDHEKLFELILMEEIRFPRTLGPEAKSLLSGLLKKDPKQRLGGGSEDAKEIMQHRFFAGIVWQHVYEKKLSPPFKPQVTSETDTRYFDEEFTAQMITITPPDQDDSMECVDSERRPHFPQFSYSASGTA
- Procedure Text: Inhibition of human PKBalpha (118 to 480 residues) assessed as enzyme activity at 1 uM using 33P ATP by radioactive filter binding assay
- Set-up: scale not given: the % may be the effect or the level left
Quantity Measured: Activity (%)
The response must be a number in % with no trailing unit.

Req: Missing value: Activity, RAC-alpha serine/threonine-protein kinase (Homo sapiens) (UniProt P31749), entry CCCCc1cc(-c2c[nH]c3ncccc23)nc(N)n1 . Fill in?
Resp: -23

Req: Try the compound CCc1cc(-c2c[nH]c3ncc(-c4cnn(C5CCNCC5)c4)cc23)nc(N)n1
Resp: -10

Req: Try the compound Nc1nccc(-c2c[nH]c3ncccc23)n1 [MERIOLIN 1]
Resp: -23

Req: Try the compound CCCCc1cc(-c2c[nH]c3ncc(-c4cnn(C5CCNCC5)c4)cc23)nc(N)n1
Resp: -9

====

- Target System: Mitogen-activated protein kinase 14 (Homo sapiens) (UniProt Q16539)
- Sequence (Q16539 whole entry): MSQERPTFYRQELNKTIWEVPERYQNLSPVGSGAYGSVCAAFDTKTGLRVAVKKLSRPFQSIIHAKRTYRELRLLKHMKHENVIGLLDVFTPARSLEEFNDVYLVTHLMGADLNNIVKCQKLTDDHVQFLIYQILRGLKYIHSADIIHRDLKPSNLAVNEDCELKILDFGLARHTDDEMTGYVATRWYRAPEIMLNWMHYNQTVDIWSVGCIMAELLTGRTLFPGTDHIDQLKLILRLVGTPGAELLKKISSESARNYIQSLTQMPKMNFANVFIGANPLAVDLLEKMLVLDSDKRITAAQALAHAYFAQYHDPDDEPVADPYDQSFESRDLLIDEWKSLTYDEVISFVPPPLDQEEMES
- Procedure Text: Inhibition of SAPK2a (unknown origin) assessed as enzyme activity at 1 uM using 33P ATP by radioactive filter binding assay
- Set-up: scale not given: the % may be the effect or the level left
Could you please report measured Activity for the items listed next?
The response must be a number in % with no trailing unit.

Req: Query (molecule): CCCCc1cc(-c2c[nH]c3ncc(-c4cnn(C5CCNCC5)c4)cc23)nc(N)n1 ; field requested: Activity
Resp: -22

Req: Try the molecule Nc1nccc(-c2c[nH]c3ncccc23)n1
Resp: -5

Req: Try the molecule CCCCc1cc(-c2c[nH]c3ncccc23)nc(N)n1
Resp: -10

Req: Try the molecule CCc1cc(-c2c[nH]c3ncc(-c4cnn(C5CCNCC5)c4)cc23)nc(N)n1
Resp: -16

====

Could you please report measured Activity for the items listed next?
- Target System: 3-phosphoinositide-dependent protein kinase 1 (Homo sapiens)
- Procedure Text: Inhibition of human PDK1 (52 to 556 residues) assessed as enzyme activity at 1 uM using 33P ATP by radioactive filter binding assay
- Set-up: scale not given: the % may be the effect or the level left
The response must be a number in % with no trailing unit.

Req: Query (compound): Nc1nccc(-c2c[nH]c3ncccc23)n1 ; field requested: Activity
Resp: -12

Req: Try the compound CCCCc1cc(-c2c[nH]c3ncc(-c4cnn(C5CCNCC5)c4)cc23)nc(N)n1
Resp: -92

Req: Try the compound CCc1cc(-c2c[nH]c3ncc(-c4cnn(C5CCNCC5)c4)cc23)nc(N)n1
Resp: -80

Req: Try the compound CCCCc1cc(-c2c[nH]c3ncccc23)nc(N)n1
Resp: -54

====

- Target System: Mitogen-activated protein kinase 1 (Homo sapiens) (UniProt P28482)
- Sequence (P28482 whole entry, the tested form may be a part): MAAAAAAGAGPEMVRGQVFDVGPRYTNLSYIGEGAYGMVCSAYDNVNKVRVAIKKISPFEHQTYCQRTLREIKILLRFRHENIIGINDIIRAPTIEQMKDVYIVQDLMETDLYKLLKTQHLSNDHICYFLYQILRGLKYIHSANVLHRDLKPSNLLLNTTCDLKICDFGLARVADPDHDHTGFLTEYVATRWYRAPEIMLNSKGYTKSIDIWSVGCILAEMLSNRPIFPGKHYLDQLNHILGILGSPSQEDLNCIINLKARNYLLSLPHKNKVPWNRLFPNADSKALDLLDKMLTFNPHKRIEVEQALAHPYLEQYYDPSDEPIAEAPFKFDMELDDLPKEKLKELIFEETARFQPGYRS
- Procedure Text: Inhibition of human MAPK2 (2 to 360 residues) assessed as enzyme activity at 1 uM using 33P ATP by radioactive filter binding assay
- Set-up: scale not given: the % may be the effect or the level left
Quantity Measured: Activity (%)
The response must be a number in % with no trailing unit.

Req: Missing value: Activity, Mitogen-activated protein kinase 1 (Homo sapiens) (UniProt P28482), entry Nc1nccc(-c2c[nH]c3ncccc23)n1 . Fill in?
Resp: -21

Req: Try the compound CCc1cc(-c2c[nH]c3ncc(-c4cnn(C5CCNCC5)c4)cc23)nc(N)n1
Resp: -32

Req: Try the compound CCCCc1cc(-c2c[nH]c3ncc(-c4cnn(C5CCNCC5)c4)cc23)nc(N)n1
Resp: -30

Req: Try the compound CCCCc1cc(-c2c[nH]c3ncccc23)nc(N)n1
Resp: -9

====

- Procedure Text: Intrinsic clearance in mouse liver microsomes
- Type: ADME
- Assay Conditions: read-out: CLH
Could you please report measured microsomal CLint for the items listed next?
The response must be a number in µL/min/mg with no trailing unit.

Req: Query (compound): CCc1cc(-c2c[nH]c3ncc(-c4cnn(CC(C)C)c4)cc23)nc(N)n1 ; field requested: microsomal CLint
Resp: 67

Req: Try the compound CCc1cc(-c2c[nH]c3ncc(-c4cnn(C)c4)cc23)nc(N)n1
Resp: 71

Req: Try the compound CCc1cc(-c2c[nH]c3ncc(-c4cnn(CCN(C)C)c4)cc23)nc(N)n1
Resp: 39
